- protocol-summary: Solubility check of 20 wt % solutions in organic solvents
- Assay type: physicochemical
- Design: key: A: the compound dissolves at room temperature; B: the compound does not dissolve at room temperature but dissolves when heated to 60° C.; the compound does not dissolve even when heated to 60° C
- assay-conditions: 20 wt % solution in methyl ethyl ketone (MEK); room temperature or heated to 60° C.
parameter: Results of Solubility MEK

Task item: // Input: C=CC(=O)OCCCCCCOc1ccc(OC(=O)C2CCC(C(=O)Oc3ccc(C4CCC(C5CCC(CCC)CC5)CC4)cc3/C=N/N(CCOCCOC)c3nc4ccccc4s3)CC2)cc1 (centres unmarked) . Output its Results of Solubility MEK only.
Reply: C

Task item: Please report the measured Results of Solubility MEK for C=CC(=O)OCCOCCOCCOc1ccc(OC(=O)C2CCC(C(=O)Oc3ccc(C4CCC(C5CCC(CCC)CC5)CC4)cc3/C=N/N(CCCCCC)c3nc4ccccc4s3)CC2)cc1 (centres unmarked)
Reply: C

Task item: Output Results of Solubility MEK of C=CC(=O)OCCCCCCOc1ccc(OC(=O)C2CCC(COc3ccc(C4CCC(CCC)CC4)cc3/C=N/N(CCOCCOC)c3nc4ccccc4s3)CC2)cc1 (centres unmarked)
Reply: B

Task item: Name the recorded Results of Solubility MEK of the compound listed here: C=CC(=O)OCCCCCCOc1ccc(OC(=O)C2CCC(COc3ccc(OCC4CCC(C(=O)Oc5ccc(OCCCCCCOC(=O)C=C)cc5)CC4)c(/C=N/N(CCOCCOCCOC(=O)C=C)c4nc5ccccc5s4)c3)CC2)cc1 (centres unmarked)
Reply: A

Others:
Task item: Kindly indicate its recorded Results of Solubility MEK. Item: C=CC(=O)OCCCCCCOc1ccc(OC(=O)C2CCC(COc3ccc(OCC4CCC(C(=O)Oc5ccc(OCCCCCCOC(=O)C=C)cc5)CC4)c(/C=N/N(CCOCCOC)c4nc5ccccc5s4)c3)CC2)cc1 (centres unmarked)
Reply: B

====

- protocol-summary: Solubility check of 20 wt % solutions in organic solvents
- Type: physicochemical
- Parameters: key: A: the compound dissolves at room temperature; B: the compound does not dissolve at room temperature but dissolves when heated to 60° C.; the compound does not dissolve even when heated to 60° C
- assay-conditions: 20 wt % solution in trichloroethane; room temperature or heated to 60° C.
parameter: Results of Solubility Trichloroethane

Task item: Input C=CC(=O)OCCCOC(=O)C1CCC(C(=O)OC2CCC(C(=O)Oc3ccc(OC(=O)C4CCC(OC(=O)C5CCC(C(=O)OCCCOC(=O)C=C)CC5)CC4)c4c3SC(=C3C(=O)N(c5ccccc5)N=C3C(=O)OCC)S4)CC2)CC1 (stereo not shown) [Compound R-3, reference compound] , output reported Results of Solubility Trichloroethane.
Reply: B

Task item: Given C=CC(=O)OCCCCCCOc1ccc(OC(=O)C2CCC(COc3ccc(OCC4CCC(C(=O)Oc5ccc(OCCCCCCOC(=O)C=C)cc5)CC4)c(/C=N/N(CCOCCOC)c4nc5ccccc5s4)c3)CC2)cc1 (stereo not shown) [Compound I-6] , respond with its Results of Solubility Trichloroethane.
Reply: A

Task item: Identify measured Results of Solubility Trichloroethane corresponding to C=CC(=O)OCCOCCOCCOc1ccc(OC(=O)C2CCC(C(=O)Oc3ccc(C4CCC(CCC)CC4)cc3/C=N/Nc3nc4ccccc4s3)CC2)cc1 (stereo not shown) [Compound I-2]
Reply: A

Task item: Input C=CC(=O)OCCCCCCOc1ccc(OC(=O)C2CCC(C(=O)Oc3ccc(OC(=O)C4CCC(C(=O)Oc5ccc(OCCCCCCOC(=O)C=C)cc5)CC4)c(/C=N/N(COCCOC)c4nc5ccccc5s4)c3)CC2)cc1 (stereo not shown) [Compound R-1, reference compound] , output reported Results of Solubility Trichloroethane.
Reply: B

Every entry's value here was drawn from patent US11046889B2.
